Taken from PubChem BioAssay.

Assay overview: splicing luciferase reporter signal modulators, primary screen, spliceosome inhibition project, cell-based, HEK293, splice +/- reporter (AID 1101);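 further: HEK293 cells carrying a splicing-competent luciferase reporter gene; test concentration not given here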
Experimental parameters: luminescence, 24 h, higher = more signal, called active from +8 up or from −8 down
Measured quantity: z-score

| Molecule | Measured quantity | Readout value |
| --- | --- | --- |
| CCCCC(=C=CC[C@H](O)c1ccccc1OCCO)CCO | z-score | -0.25 |
| C=CCNC(=O)[C@H]1[C@@H]2C(=O)O[C@@H](c3ccccc3)[C@@H](c3ccccc3)N2[C@@H](c2ccc(OCCO)cc2)[C@]12C(=O)Nc1ccc(C#Cc3ccc(OC)cc3)cc12 | z-score | -0.258 |
| CCOC(=O)C[C@H]1[C@H](OC(=O)c2cc3ccccc3oc2=O)[C@@H](NC(=O)c2ccc(-c3ccccc3)cc2)c2cc(OCCCO)ccc2N1C(=O)Cc1ccc(OC)cc1 | z-score | 0.595 |
| COC(=O)[C@@]1(Cc2ccc(F)cc2)[C@H]2c3cc(C(=O)N(C)C)n(Cc4cccc5ccccc45)c3C[C@H]2CN1C(=O)c1ccccc1 | z-score | 0.551 |
| O=C(NCCN1CCOCC1)[C@@H]1c2ccccc2C(=O)N(CC23CC4CC(CC(C4)C2)C3)[C@H]1c1ccc(CO)cc1 | z-score | 0.507 |
| O=C1NC(=O)C2C1C=CC(C(O)C1CCCCC1)N2Nc1ccccn1 (stereo not drawn) | z-score | 1.31 |
| CN1C(=O)C2C=CC(C(O)c3ccc([N+](=O)[O-])cc3)N(Nc3ccccc3)C2C1=O (stereo not drawn) | z-score | 0.293 |
| C=C[C@@H](CO)NS(=O)(=O)c1ccc(Br)cc1 | z-score | -0.774 |

---

Property: z-score; scope: individual molecules
System tested: NADPH oxidase 2 (Homo sapiens)
Assay overview: NOX2-dependent H2O2 signal modulators, primary screen, NOX inhibitor project, cell-based, HEK293-NOX2, PMA-stimulated, Amplex Red fluorescence (AID 1159); further: test concentration not given here
Experimental parameters: 45 min, higher = more signal, called active from +8 up or from −8 down
Calls of active or inactive are those of the source.

| Molecule | System tested | z-score |
| --- | --- | --- |
| COC(=O)[C@H](Cc1ccccc1)N1CC(C)(OC)O[C@@H](Cc2ccccc2)[C@H]1/C=C/C1CC1 (some centres undefined) | NADPH oxidase 2 (Homo sapiens) | -4.36 (inactive) |
| C=CCC(OC(C)=O)[C@@H]1[C@@H](N(Cc2ccc(-c3ccccc3)cc2)C(=O)Cc2ccc(OC)cc2)c2cc(OCCCO)ccc2N1C(=O)Cc1ccc(OC)cc1 (some centres undefined) | NADPH oxidase 2 (Homo sapiens) | -3.55 (inactive) |
| O=C(c1ccccc1)N1Cc2ccccc2C[C@@]2(N=C(c3ccc(OCCCO)cc3)O[C@H]2c2ccccc2)C1=O | NADPH oxidase 2 (Homo sapiens) | 1.21 (inactive) |
| C[N+](C)(C)CCCC[C@@H]1NC(=O)[C@H]2C[C@@H](C(=O)NCCCCCN)[C@@H](c3ccc(O)cc3)N2C1=O | NADPH oxidase 2 (Homo sapiens) | 0.081 (inactive) |

---

Assay overview: binders of probe aFSTL3 on microarray, primary screen, stem cell growth factor project, biochemical, small-molecule microarray, fluorescence 635/667 (AID 1064);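 further: measures binding of the biotinylated anti-FSTL3 antibody to printed compounds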
Experimental parameters: higher = more signal
Use fulfilled when the recorded composite z-score is no lower than -0.1; use not fulfilled when it is lower.

| Compound | Class assignment |
| --- | --- |
| COc1cc(Cc2cc3c(c(CCc4ccccc4)n2)[Si](C(C)C)(C(C)C)O[C@H]3c2ccccc2)cc(OC)c1OC | fulfilled |
| CN1C(=O)C2C=CC(C(O)c3cccs3)N(N(c3ccccc3)c3ccccc3)C2C1=O (stereo not drawn) | not fulfilled |
| [N-]=[N+]=Nc1ccccc1C[C@]1(C(=O)N2CCCCC2)N=C(c2ccc(OCCCO)cc2)O[C@H]1c1ccccc1 | fulfilled |
| CCCCC(=C=CC[C@@H](O)c1ccccc1OCCO)C[C@@H](O)c1ccccn1 | fulfilled |
| CC(C)Cc1ccc(CN2CC[C@@H](NC(=O)c3ccccc3)C2)cc1 | fulfilled |
| Cc1ccc(S[C@]2(C(=O)NCC(C)C)CC(=O)N(C(C)C)[C@@H]2c2ccc(CO)cc2I)cc1 | fulfilled |
| [N-]=[N+]=NCc1ccccc1C[C@@]1(C(N)=O)N=C(c2ccc(OCCCO)cc2)O[C@@H]1c1ccccc1N=[N+]=[N-] | not fulfilled |

---

Assay overview: E. coli DRC41 culture turbidity changes, primary screen, E. coli filamentation inducer project, strain DRC41, OD650, 48 h (AID 1152);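 further: E. coli MC1000 strain DRC41 lacking acrAB efflux pump and sulA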
Experimental parameters: E. coli DRC41 (acrAB sulA), higher = more signal, called active from +8 up or from −8 down
Use yes when the recorded z-score is no lower than 0.1; use no when it is lower.

| Compound | Class assignment |
| --- | --- |
| O=C1NC(=O)C2C1C=CC(C(O)c1ccc(F)cc1)N2Nc1ccc(Cl)cc1Cl (centres undefined) | no |
| O=C1C2C=CC(C(O)C3CCCCC3)N(Nc3ccccc3F)C2C(=O)N1c1ccccc1 (centres undefined) | yes |
| C=C(C(=O)CC[C@@H](OC(=O)c1ccccc1-c1ccccc1C(=O)O)c1ccc(CO)o1)C(C)C | no |
| C=CCOC(=O)[C@@H]1[C@H]2C(=O)O[C@H](c3ccccc3)[C@H](c3ccccc3)N2[C@H](c2ccc(OCCOC(=O)[C@H]3C[C@H]4C(=O)N[C@@H](CCCCN(C)C)C(=O)N4[C@H]3c3cccc(OCCO)c3)cc2)[C@@]12C(=O)Nc1ccccc12 | yes |
| O=C1c2ccccc2[C@@]2(Cc3ccccc3N(CC(F)(F)F)C2=O)[C@H](c2ccc(CO)cc2)N1Cc1ccccc1 | no |
| CCOC(=O)C1=CCC(c2ccncc2)N(S(=O)(=O)c2ccc(C)cc2)C1 (centres undefined) | yes |
| CC(CO)N1C(=O)[C@@H]2[C@H]3C(=O)OCC=C[C@H]3OC23C=CCN(c2ccc4ccccc4c2)C(=O)[C@@H]13 (some centres undefined) | no |
| COc1ccc(C(=O)Nc2cccc(CN3C(=O)[C@]4(O[C@H](CC(=O)N(CCO)Cc5ccccc5)[C@@H]([Si](C)(C)c5ccc(OC)cc5)[C@@H]4C)c4ccccc43)c2)cc1 | yes |
| CC(C)c1ccc(NN2C(C(O)C3=C[C@H]4C[C@@H](C3)C4(C)C)C=CC3C(=O)N(c4ccccc4)C(=O)C32)cc1 (some centres undefined) | no |
| CO[C@H]1O[C@H](CO)[C@@H](OC(=O)CCc2ccccc2)[C@@H]2OC(=O)[C@@H](Cc3ccc4ccccc4c3)C/C=C/C[C@H](Cc3ccc4ccccc4c3)C(=O)O[C@@H]12 | yes |
| COC(=O)C1=CC(CCCO)=CC(c2ccc(CN3CCCC3)cc2)N(C)C=C1C(=O)OC (centres undefined) | yes |
| COc1ccc([Si](C)(C)[C@@H]2[C@@H](CC(=O)N3Cc4ccccc4C[C@H]3CO)O[C@]3(C(=O)N(Cc4ccc(I)cc4)c4ccccc43)[C@H]2C)cc1 | yes |
| COc1cc(Cc2cc3c(c(CCc4ccccc4)n2)[Si](C(C)C)(C(C)C)O[C@H]3c2ccccc2)cc(OC)c1OC | no |
| [N-]=[N+]=NCc1ccccc1[C@H]1OC(c2ccc(OCCCO)cc2)=N[C@@]1(Cc1ccccc1N=[N+]=[N-])C(=O)N1CCOCC1 | no |

---

Assay overview: small-molecule microarray binders of probe aNog, primary screen, biochemical, biotinylated probe, 635/667 nm fluorescence (AID 1115);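 further: probe is biotinylated aNog protein used at 0.15 µg/mL for 1 h at 4 C; z-score combines 667 nm fluorescence of each spot with its signal to noise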
Experimental parameters: higher = more signal
Measured quantity: composite z-score

| Molecule | Measured quantity | Readout value |
| --- | --- | --- |
| COc1cc(Cc2cc3c(c(-c4ccccc4)n2)[Si](C(C)C)(C(C)C)OC3)cc(OC)c1OC | composite z-score | -0.359 |
| CC(C)(C)OC(=O)CC[C@]1(C(N)=O)N=C(c2ccc(OCCCO)cc2)O[C@H]1c1ccccc1N=[N+]=[N-] | composite z-score | 0.886 |
| CC(C)c1ccc(NN2C(C(O)C(C)c3ccccc3)C=CC3C(=O)N(c4ccccc4)C(=O)C32)cc1 (centres undefined) | composite z-score | 2.01 |
| C=C(COC)C(=O)CC[C@@H](OC(=O)c1ccccc1-c1ccccc1C(=O)O)c1ccccc1OCCO | composite z-score | 0.153 |

---

Assay overview: inhibitors of hydroxyurea-induced Chk1 phosphorylation, primary screen, imaging, HeLa, phospho-Chk1 antibody, percent positive cells (AID 1186)
Experimental parameters: hydroxyurea-induced phospho-Chk1 immunofluorescence imaging, higher = more signal
Use condition met when the recorded z-score is no lower than -0.1; use condition not met when it is lower.

| Compound | Class assignment |
| --- | --- |
| COC(=O)[C@@]1(Cc2ccc(F)cc2)[C@H]2c3cc(C(=O)N4CCCC4)n(CCSCCO)c3C[C@H]2CN1C(=O)c1ccccc1 | condition met |
| COC(=O)Cn1c(C(=O)N(C)C)cc2c1C[C@H]1CN(C(=O)c3ccccc3)[C@@](Cc3ccccc3)(C(=O)OC)[C@@H]21 | condition not met |
| O=C1NC(=O)C2C1C=CC(C(O)C(O)CO)N2Nc1ccccn1 (centres undefined) | condition not met |
| COc1cc(Cc2cc3c(c(-c4ccccc4)n2)[Si](C(C)C)(C(C)C)OC3)cc(OC)c1OC | condition not met |
| C=C(CCCC)C(=O)CC[C@@H](OC(C)=O)c1ccc(OCCO)cc1 | condition not met |
| CC[C@@H](O[Si](C#C[Si](C(C)C)(C(C)C)C(C)C)(C(C)C)C(C)C)c1cn(Cc2cccc(Cl)c2)nn1 | condition met |
| COc1cccc(C)c1NC(=O)O[C@H]1[C@H](OC(=O)Nc2ccccc2)[C@@H](OC(=O)Nc2ccccc2)[C@@H](OC)O[C@@H]1CO | condition not met |
| COCCOC(=O)N1C(=O)[C@@]2(c3cc(C#CC4=CCCCC4)ccc31)[C@H](c1ccc(O)cc1)N1[C@H](c3ccccc3)[C@H](c3ccccc3)OC(=O)[C@H]1[C@@H]2C(=O)N1CCc2cc(OC)c(OC)cc2C1 | condition met |
| COCCOC(=O)N1C(=O)[C@@]2(c3cc(C#CCC(C(=O)OC)C(=O)OC)ccc31)[C@H](C(=O)N1CCc3cc(OC)c(OC)cc3C1)[C@H]1C(=O)O[C@H](c3ccccc3)[C@H](c3ccccc3)N1[C@@H]2c1ccccc1OCCO | condition not met |
| C=C(C(=O)CC[C@@H](OC(=O)c1ccccc1-c1ccccc1C(=O)O)c1ccc(OCCO)cc1)C(C)C | condition met |
| [N-]=[N+]=NCc1ccccc1[C@H]1OC(c2ccc(OCCCO)cc2)=N[C@@]1(CCS(=O)(=O)c1ccccc1)C(=O)NCCN1CCOCC1 | condition met |
| CCOC(=O)C[C@H]1[C@H](OC(=O)c2ccc(-c3ccccc3)cc2)[C@@H](NC(=O)C2CCCCC2)c2cc(OCCCO)ccc2N1C(=O)Cc1ccc(OC)cc1 | condition met |
| C=CCN1C(=O)[C@]2(O[C@H](CCO)[C@@H]([Si](C)(C)c3ccc(OC)cc3)[C@@H]2C)c2cc(N3C(=O)c4ccccc4Oc4ccccc43)ccc21 | condition not met |
| COc1ccc(NN2C(C(O)c3ccc(F)cc3)C=CC3C(=O)N(C4CCCCC4)C(=O)C32)cc1 (centres undefined) | condition met |
